Please provide measured STK11 functional score for the entries that follow.
B1: library; numbered along this chain (parent)
chain: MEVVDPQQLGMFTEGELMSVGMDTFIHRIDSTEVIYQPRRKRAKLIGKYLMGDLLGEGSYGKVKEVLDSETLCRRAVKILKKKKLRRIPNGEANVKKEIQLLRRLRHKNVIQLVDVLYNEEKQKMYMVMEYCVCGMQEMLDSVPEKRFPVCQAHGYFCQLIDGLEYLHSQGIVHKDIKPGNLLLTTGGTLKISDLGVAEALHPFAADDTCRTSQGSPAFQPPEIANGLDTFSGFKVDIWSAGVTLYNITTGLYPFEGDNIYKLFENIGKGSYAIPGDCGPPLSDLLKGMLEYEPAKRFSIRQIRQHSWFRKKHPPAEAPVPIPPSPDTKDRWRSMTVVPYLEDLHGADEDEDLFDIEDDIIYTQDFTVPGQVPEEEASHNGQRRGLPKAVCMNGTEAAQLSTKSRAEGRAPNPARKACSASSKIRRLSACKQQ

# Variants of: B1
# assay summary: STK11 functional score (HeLa growth suppression), rescaled enrichment; synonymous median = 1, nonsense median = 0 (normalised score)
# settings: with HeLa; variant type: missense
Numbers only.

// for each variant in input: emit STK11 functional score
1. R147W
2. N247C
3. G21A
4. A398V
5. I360W
6. Q137W

Result:
[0.777, 1.15, 1.39, 1.01, 0.807, 1.25]

// for each variant in input: emit STK11 functional score
1. E396Y
2. M51Y

Result:
1: 1.23; 2: 1.62
